Molecular target: PKR T384W (Homo sapiens, UniProt P30613, T384W)
Sequence (P30613 whole entry T384W): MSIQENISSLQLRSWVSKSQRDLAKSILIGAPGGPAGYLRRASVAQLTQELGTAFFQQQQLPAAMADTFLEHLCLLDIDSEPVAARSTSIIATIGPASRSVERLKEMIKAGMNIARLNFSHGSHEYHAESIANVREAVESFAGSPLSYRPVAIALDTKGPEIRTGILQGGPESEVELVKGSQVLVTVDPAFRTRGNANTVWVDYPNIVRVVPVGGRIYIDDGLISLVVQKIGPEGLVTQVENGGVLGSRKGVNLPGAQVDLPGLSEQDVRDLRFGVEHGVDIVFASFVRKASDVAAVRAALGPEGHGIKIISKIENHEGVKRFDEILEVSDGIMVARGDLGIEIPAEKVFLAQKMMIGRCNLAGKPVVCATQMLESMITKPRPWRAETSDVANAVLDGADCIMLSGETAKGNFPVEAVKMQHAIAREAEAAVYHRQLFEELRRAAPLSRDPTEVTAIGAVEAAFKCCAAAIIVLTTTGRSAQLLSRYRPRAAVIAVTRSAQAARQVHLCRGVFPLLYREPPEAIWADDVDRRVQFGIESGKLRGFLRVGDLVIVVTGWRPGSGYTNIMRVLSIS
Assay: PKR T384W Single Point Percent Activation Assay
Assay type: biochemical
Conditions: read-out: Act. % 384W
measurement_label: activation at 1 µM

Note to self: activation at 1 µM recorded for C[C@H]1CN(CC2CCCCO2)CCN1C(=O)c1ccc(NS(=O)(=O)c2cccc3cccnc23)cc1 (some centres unmarked) was 1 to 100%

Note to self: activation at 1 µM recorded for COc1ccccc1N1CCN(C(=O)c2ccc(NS(=O)(=O)c3cccc4cccnc34)cc2)C(C)C1 (centres unmarked) was 101 to 500%

Note to self: activation at 1 µM recorded for `C[C@H]1CN(Cc2c(F)cc(F)cc2F)CCN1C(=O)c1ccc(NS(=O)(=O)c2cccc3cccnc23)cc1Cl` was 101 to 500%

Note to self: activation at 1 µM recorded for `O=C(c1ccc(NS(=O)(=O)c2cccc3cccnc23)cc1)N1CC2CCC(C1)N2CC1CC1` was 101 to 500%

Note to self: activation at 1 µM recorded for `C[C@H]1CN(C(=O)c2ccc(NS(=O)(=O)c3cccc4cccnc34)cc2)CCN1C(=O)c1ccccn1` was 101 to 500%

Note to self: activation at 1 µM recorded for `C[C@H]1CN(CC2CC2)CCN1C(=O)c1ccc(NS(=O)(=O)c2cccc3cccnc23)cc1` was 1 to 100%

Note to self: activation at 1 µM recorded for `CC(C)OC(=O)N1CCN(C(=O)c2ccc(NS(=O)(=O)c3cccc4cccnc34)cc2)[C@@H](C)C1` was 1 to 100%

Note to self: activation at 1 µM recorded for CC1CN(Cc2c(F)ccc(F)c2F)CC(C)N1C(=O)c1ccc(NS(=O)(=O)c2cccc3cccnc23)cc1 (centres unmarked) was 1 to 100%

Note to self: activation at 1 µM recorded for `C[C@@H]1CN(Cc2cc(F)c(F)cc2F)CCN1C(=O)c1ccc(NS(=O)(=O)c2cccc3cccnc23)cc1` was 1 to 100%

Note to self: activation at 1 µM recorded for `O=C(c1ccc(NS(=O)(=O)c2cccc3cccnc23)cc1)N1CCN(Cc2cc(F)cc(F)c2)C[C@@H]1c1ccccc1` was 1 to 100%

Note to self: activation at 1 µM recorded for CC(c1c(F)cccc1F)N1CCN(C(=O)c2ccc(NS(=O)(=O)c3cccc4cccnc34)cc2)[C@H](C)C1 (some centres unmarked) was 1 to 100%

Note to self: activation at 1 µM recorded for `C[C@@H]1CN(C(=O)OCC2CC2)CCN1C(=O)c1ccc(NS(=O)(=O)c2cccc3cccnc23)cc1` was 1 to 100%

Note to self: activation at 1 µM recorded for CC1CN(Cc2c(F)cc(F)cc2F)CC(C)N1C(=O)c1ccc(NS(=O)(=O)c2cccc3cccnc23)cc1 (centres unmarked) was 1 to 100%

Note to self: activation at 1 µM recorded for CC(c1ccc(F)cc1F)N1CCN(C(=O)c2ccc(NS(=O)(=O)c3cccc4cccnc34)cc2)[C@@H](C)C1 (some centres unmarked) was 101 to 500%

Note to self: activation at 1 µM recorded for `C[C@@H]1CN(CC2CCC2)CCN1C(=O)c1ccc(NS(=O)(=O)c2cccc3cccnc23)cc1` was 1 to 100%

Note to self: activation at 1 µM recorded for `C[C@H]1CN(C(=O)O[C@@H]2CCOC2)CCN1C(=O)c1ccc(NS(=O)(=O)c2cccc3cccnc23)cc1` was 101 to 500%

Note to self: activation at 1 µM recorded for `O=C(c1ccc(NS(=O)(=O)c2cccc3cccnc23)cc1)N1C2CCC1CN(Cc1ccccc1)C2` was 101 to 500%

Note to self: activation at 1 µM recorded for `C[C@H]1CN(C(=O)c2ccc(NS(=O)(=O)c3cccc4cccnc34)cc2)CCN1Cc1ccccc1` was 101 to 500%

Note to self: activation at 1 µM recorded for C[C@H]1CN(CC2CCOC2)CCN1C(=O)c1ccc(NS(=O)(=O)c2cccc3cccnc23)cc1 (some centres unmarked) was 1 to 100%

Note to self: activation at 1 µM recorded for `C[C@H]1CN(CC2CCCC2)CCN1C(=O)c1ccc(NS(=O)(=O)c2cccc3cccnc23)cc1` was 101 to 500%

Note to self: activation at 1 µM recorded for `CC(C)OC(=O)N1CCN(C(=O)c2ccc(NS(=O)(=O)c3cccc4cccnc34)cc2)[C@H](C)C1` was 101 to 500%

Note to self: activation at 1 µM recorded for `C[C@H]1CN(Cc2cc(F)cc(F)c2)CCN1C(=O)c1ccc(NS(=O)(=O)c2cccc3cccnc23)cc1` was 101 to 500%

Note to self: activation at 1 µM recorded for `CC[C@H]1CN(Cc2cc(F)cc(F)c2)CCN1C(=O)c1ccc(NS(=O)(=O)c2cccc3cccnc23)cc1` was 101 to 500%

Note to self: activation at 1 µM recorded for `CC(C)[C@H]1CN(Cc2ccc(F)cc2)CCN1C(=O)c1ccc(NS(=O)(=O)c2cccc3cccnc23)cc1` was 101 to 500%

Note to self: activation at 1 µM recorded for `C[C@H]1CN(Cc2ccc(Cl)c(F)c2)CCN1C(=O)c1ccc(NS(=O)(=O)c2cccc3cccnc23)cc1Cl` was 101 to 500%

Note to self: activation at 1 µM recorded for `CCOC(=O)N1CCN(C(=O)c2ccc(NS(=O)(=O)c3cccc4cccnc34)cc2)c2ccccc21` was 1 to 100%

Note to self: activation at 1 µM recorded for `C[C@@H]1CN(C(=O)OC2CCCCC2)CCN1C(=O)c1ccc(NS(=O)(=O)c2cccc3cccnc23)cc1` was 1 to 100%

Note to self: activation at 1 µM recorded for `C[C@@H]1CN(C(=O)c2ccccn2)C[C@H](C)N1C(=O)c1ccc(NS(=O)(=O)c2cccc3cccnc23)cc1` was 1 to 100%

Note to self: activation at 1 µM recorded for CC[C@H]1CN(C(C)c2cc(F)cc(F)c2)CCN1C(=O)c1ccc(NS(=O)(=O)c2cccc3cccnc23)cc1 (some centres unmarked) was 1 to 100%

This collection of values is drawn from patent US9404081B2.
